Recorded metabolised by entry
molecular target: monoamine oxidase (bovine plasma amine oxidase) (Bos taurus, UniProt P21398+P56560); assay: In vitro bovine plasma monoamine oxidase deamination with semicarbazide; type: cell-free; details: cattle, with semicarbazide (concentration not stated), read-out: MAO deamination
// note: answer is a bare numeric in %

[
  {
    "Molecule": "COc1ccc(CCN)c(SC)c1OC",
    "Recorded Measurement": 10
  },
  {
    "Molecule": "COc1ccc(CCN)cc1OC",
    "Recorded Measurement": 16
  },
  {
    "Molecule": "COc1ccc(CCN)c(OC)c1OC",
    "Recorded Measurement": 4
  }
]

Proceed to the following item.
Jot down metabolised (monoamine oxidase (bovine plasma amine oxidase) (Bos taurus, UniProt P21398+P56560)) of COc1cc(CCN)cc(OC)c1OC [MESCALINE] . 1
